Source: the kinase profiling compilation of Christmann-Franck et al. (2016)

Attribute: kinase still bound, per cent of control
Biological target: MST4 (human)
Assay: KINOMEscan competition binding
Conditions: compound 10.0 µM
Give just the numeric value; % need not be written.

// field: kinase still bound, per cent of control; key: `C=CC(=O)Nc1cc(-n2c(=O)ccc3cnc4ccc(-c5cn[nH]c5)cc4c32)ccc1C` ; value = 79

// field: kinase still bound, per cent of control; key: `CCN1CCN(C(=O)Cc2ccc(Nc3ncc(F)c(Nc4ccc(C(=O)Nc5ccccc5Cl)cc4)n3)cc2)CC1` ; value = 43

// field: kinase still bound, per cent of control; key: `COc1ccc(N(C(=O)Oc2c(C)cccc2C)c2ccnc(Nc3ccc(N4CCN(C)CC4)cc3)n2)c(OC)c1` ; value = 33

// field: kinase still bound, per cent of control; key: `C[C@@H](Oc1cc(-c2cnn(C3CCNCC3)c2)cnc1N)c1c(Cl)ccc(F)c1Cl` ; value = 13

// field: kinase still bound, per cent of control; key: `COc1cc(C(=O)N2CCC(N3CCN(C)CC3)CC2)ccc1Nc1ncc2c(n1)N(C)c1ccccc1C(=O)N2C` ; value = 95

// field: kinase still bound, per cent of control; key: `COc1cc(N2CCN(C)CC2)ccc1Nc1ncc2c(n1)N(C)c1ccccc1C(=O)N2C` ; value = 100

// field: kinase still bound, per cent of control; key: `O=C(Nc1cccc(Nc2ncc(Br)c(NCCc3cnc[nH]3)n2)c1)N1CCCC1` ; value = 0.4

// field: kinase still bound, per cent of control; key: `CNC(=O)c1cc(Oc2ccc(NC(=O)Nc3ccc(Cl)c(C(F)(F)F)c3)cc2)ccn1` ; value = 100

// field: kinase still bound, per cent of control; key: `CCN(CC)CCCCNc1ncc2c(n1)N(C)C(=O)N(c1c(Cl)c(OC)cc(OC)c1Cl)C2` ; value = 11

// field: kinase still bound, per cent of control; key: `COc1cc2ncnc(-n3nc(-c4ccccn4)nc3N)c2cc1OC` ; value = 68

// field: kinase still bound, per cent of control; key: `O=C1NC(=O)/C(=C/c2ccc3nccc(-c4ccncc4)c3c2)S1` ; value = 90

// field: kinase still bound, per cent of control; key: `NC(=O)Nc1cc(-c2cccc(F)c2)sc1C(=O)N[C@@H]1CCCNC1` ; value = 0.15

// field: kinase still bound, per cent of control; key: `O=c1cc(N2CCOCC2)oc2c(-c3cccc4c3sc3ccccc34)cccc12` ; value = 95

// field: kinase still bound, per cent of control; key: `CCN(CC)CCCCNc1ncc2cc(-c3cc(OC)cc(OC)c3)c(NC(=O)NC(C)(C)C)nc2n1` ; value = 100

// field: kinase still bound, per cent of control; key: `COCC(=O)NC/C=C/c1ccc2ncnc(Nc3ccc(Oc4ccc(C)nc4)c(C)c3)c2c1` ; value = 90

// field: kinase still bound, per cent of control; key: `C=CC(=O)Nc1ccc(CN(C(=O)Nc2c(Cl)c(OC)cc(OC)c2Cl)c2cc(Nc3ccc(N4CCN(C)CC4)cc3)ncn2)cc1` ; value = 100

// field: kinase still bound, per cent of control; key: `CN(C)C/C=C/C(=O)Nc1ccc(C(=O)Nc2cccc(Nc3nccc(-c4cccnc4)n3)c2)cc1` ; value = 100

// field: kinase still bound, per cent of control; key: `Cc1n[nH]c2ccc(-c3cncc(OC[C@@H](N)Cc4c[nH]c5ccccc45)c3)cc12` ; value = 30

// field: kinase still bound, per cent of control; key: `COc1cc2ncn(-c3cc(OCc4ccccc4C(F)(F)F)c(C(N)=O)s3)c2cc1OC` ; value = 85
